Molecular target: Mineralocorticoid receptor (Homo sapiens, UniProt P08235)
Sequence (P08235 whole entry): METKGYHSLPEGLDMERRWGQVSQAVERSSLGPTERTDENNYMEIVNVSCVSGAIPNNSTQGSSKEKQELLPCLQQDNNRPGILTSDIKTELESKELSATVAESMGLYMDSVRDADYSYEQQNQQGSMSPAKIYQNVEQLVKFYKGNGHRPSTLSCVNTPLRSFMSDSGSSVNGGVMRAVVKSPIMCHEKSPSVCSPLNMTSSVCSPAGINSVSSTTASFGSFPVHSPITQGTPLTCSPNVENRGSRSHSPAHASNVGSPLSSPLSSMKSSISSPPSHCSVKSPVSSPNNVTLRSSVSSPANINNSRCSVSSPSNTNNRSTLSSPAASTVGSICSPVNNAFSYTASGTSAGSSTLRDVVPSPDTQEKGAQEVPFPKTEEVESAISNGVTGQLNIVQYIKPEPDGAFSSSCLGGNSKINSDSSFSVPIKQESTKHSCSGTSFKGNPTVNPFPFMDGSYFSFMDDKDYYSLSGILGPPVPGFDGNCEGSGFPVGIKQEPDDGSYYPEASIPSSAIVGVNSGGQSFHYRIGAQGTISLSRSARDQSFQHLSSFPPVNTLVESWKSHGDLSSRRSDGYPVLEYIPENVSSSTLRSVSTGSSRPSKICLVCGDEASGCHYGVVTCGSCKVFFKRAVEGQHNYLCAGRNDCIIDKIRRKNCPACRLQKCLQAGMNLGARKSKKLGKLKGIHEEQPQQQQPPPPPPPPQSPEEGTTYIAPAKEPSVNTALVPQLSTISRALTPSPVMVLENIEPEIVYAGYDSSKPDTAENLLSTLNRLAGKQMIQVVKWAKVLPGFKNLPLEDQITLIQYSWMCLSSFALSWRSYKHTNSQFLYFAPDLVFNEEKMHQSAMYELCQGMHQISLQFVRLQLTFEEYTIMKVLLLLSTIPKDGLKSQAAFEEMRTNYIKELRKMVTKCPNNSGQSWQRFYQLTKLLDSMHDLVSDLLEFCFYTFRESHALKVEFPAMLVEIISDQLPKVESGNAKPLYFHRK
Experiment: Binding affinity to MR
REPORTED METRIC: Ki
Returns: string containing the number followed by the unit.

(Q) Quick one: give measured Ki for C[C@H]1c2c(cc(F)c(-c3cccc4cc[nH]c34)c2F)NC(C)(C)[C@@H]1O (racemic)
(A) 1520 nM
